Assay: QRC and CPX solubility studies in aqueous media
Format: physicochemical
Conditions: 37 °C, pH 5.5, aqueous with cosolvent or surfactant or cyclodextrin, thermodynamic from solid, Citrate buffer pH 5.5/ACys plus β-CD 3% w/v; 37 ± 0.5 °C

- test-smiles: "O=c1c(O)c(-c2ccc(O)c(O)c2)oc2cc(O)cc(O)c12"
  solubility at 120 min (µg/mL): 103

====

Test: QRC and CPX solubility studies in aqueous media
Type: physicochemical
Details: 37 °C, pH 5.5, aqueous with cosolvent or surfactant or cyclodextrin, thermodynamic from solid, Citrate buffer pH 5.5/ACys plus β-CD 2% w/v; 37 ± 0.5 °C
Experimental: QRC, in excess, was added to each medium (1 mL) until precipitation occurred. […] The solubility tests were performed in triplicate. Results are reported as means ± SE.
assay-metric: solubility at 120 min (µg/mL)

- molecule: "O=c1c(O)c(-c2ccc(O)c(O)c2)oc2cc(O)cc(O)c12 [QRC, quercetin]"
  assay-metric: "solubility at 120 min"
  measured-value: 83
